Origin of the recorded values: the supplement of paper PMC7411054

System: WPMY1-TP53BP1-CLTA
Test: phenotypically active (imaging signature differs from DMSO and reproducible) at any of 0.3-9 uM (binary (1 = active, 0 = inactive)); higher = active
Conditions: treatment time: 24 h
metric-name: phenotypically active
// print number alone

## Task Determine from records and report phenotypically active for "COc1cc(NC(=O)c2cccc(-n3cc(NC(=O)Nc4cccc(C)c4)cn3)c2)cc(OC)c1OC"
## Result 0

## Task Identify the reported phenotypically active for the following entry. "Cc1ccc([N+](=O)[O-])cc1S(=O)(=O)N(C)C"
## Result 0

## Task For CC[N+](C)(C)c1cccc(O)c1 [edrophonium] , write its phenotypically active.
## Result 0

## Task Specify measured phenotypically active for CC(C)(C(=O)c1cccnc1)c1cccnc1 [metyrapone] .
## Result 0

## Task Please supply the value of reported phenotypically active for the item "CC(C)C[C@H](NC(=O)OCC1c2ccccc2-c2ccccc21)C(=O)O"
## Result 0

## Task Return phenotypically active (reported value) for this compound: CC(C)CCN1c2nc(Nc3cc(F)c(O)c(F)c3)ncc2N(C)C(=O)C1C (configuration not stated)
## Result 1

## Task In one line, give reported phenotypically active of the entry COc1ccc(C[C@@H]2c3cc(OC)c(OC)cc3CC[N@+]2(C)CCC(=O)OCCCCCOC(=O)CC[N@@+]2(C)CCc3cc(OC)c(OC)cc3[C@H]2Cc2ccc(OC)c(OC)c2)cc1OC [Cisatracurium besylate] .
## Result 0

## Task Query phenotypically active for Nc1ncnc2c1ncn2[C@@H]1O[C@H](CO)[C@@H](O)[C@H]1O [Adenosine]
## Result 0

## Task State its phenotypically active: O=c1c(-c2ccc(O)cc2)coc2cc(O)cc(O)c12 [Genistein]
## Result 1

## Task Indicate its recorded phenotypically active; the compound in question is CO[C@H]1C=CO[C@@]2(C)Oc3c(C)c(O)c4c(O)c(c(/C=N/N5CCN(C)CC5)c(O)c4c3C2=O)NC(=O)C(C)=CC=C[C@H](C)[C@H](O)[C@@H](C)[C@@H](O)[C@@H](C)[C@H](OC(C)=O)[C@@H]1C [Rifampicin]
## Result 0

## Task Name the recorded phenotypically active of the item C[C@H]1[C@H](C)CC[C@]2(C(=O)O)CC[C@]3(C)C(=CC[C@@H]4[C@@]5(C)CC[C@H](O)C(C)(C)[C@@H]5CC[C@]43C)[C@H]12 [Ursolic acid] in your answer.
## Result 0

## Task Could you please provide reported phenotypically active for Cc1cnc(C(=O)NCCc2ccc(S(=O)(=O)NC(=O)NC3CCCCC3)cc2)cn1 [glipizide] ? Thanks!
## Result 0

## Task Note down phenotypically active recorded for "N#Cc1c(NC(=O)c2cccc3ccccc23)sc2c1CCCC2"
## Result 1

## Task State its phenotypically active for this compound: CC(C)(C)c1nc(-c2cccc(NS(=O)(=O)c3c(F)cccc3F)c2F)c(-c2ccnc(N)n2)s1 [dabrafenib]
## Result 0

## Task Supply reported phenotypically active belonging to this compound: N#CC[C@@H](C1CCCC1)n1cc(-c2ncnc3[nH]ccc23)cn1 [ruxolitinib-(S)]
## Result 0

## Task Fill in phenotypically active for record "Cc1ccc(Nc2nnc(-c3ccc([N+](=O)[O-])cc3)o2)cc1Cl"
## Result 0

## Task Fill in reported phenotypically active for this entry: CC1(C)O[C@@H]2C[C@H]3[C@@H]4C[C@H](F)C5=CC(=O)CC[C@]5(C)[C@H]4[C@@H](O)C[C@]3(C)[C@]2(C(=O)CO)O1 [flurandrenolide]
## Result 0

## Task Quote phenotypically active reported for CNC(=C[N+](=O)[O-])NCCSCc1ccc(CN(C)C)o1 [ranitidine] please.
## Result 0

## Task Return phenotypically active (reported value) for this compound: CC(C)(C)NC[C@H](O)c1ccc(O)c(CO)c1 [levalbuterol]
## Result 0

## Task Specify phenotypically active for O=C1CCC[C@@H]2[C@H]3CCC[N+]4([O-])CCC[C@@H](CN12)[C@@H]34 (some centres not stated) [Oxymatrine] and stop.
## Result 0

## Task For "CCC(=O)N1CCOc2c(cc(-c3ccc(OC)c(OC)c3)cc2OC[C@H]2CCCN(C)C2)C1" , write its phenotypically active.
## Result 0

## Task Tell me phenotypically active reported for O=C(O)[C@H](O)[C@@H](O)[C@H](O[C@@H]1O[C@H](CO)[C@H](O)[C@H](O)[C@H]1O)[C@H](O)CO [Lactobionic acid]
## Result 0
